Conditions: in acetone, 283.15 K
Endpoint Name: solubility (mole fraction)

Inquiry: For the compound O=C1CCc2ccc(OCCCCN3CCN(c4cccc(Cl)c4Cl)CC3)cc2N1 , report solubility (mole fraction).
Reply text: 2.73e-05

====

Conditions: in isopropanol, 313.15 K
Endpoint Name: solubility (mole fraction)
# answer = number (no unit)

Inquiry: For the compound O=C1CCc2ccc(OCCCCN3CCN(c4cccc(Cl)c4Cl)CC3)cc2N1 , give its reported solubility (mole fraction).
Reply text: 5.05e-05

====

Conditions: in n-propanol, 293.15 K
Endpoint Name: solubility (mole fraction)
Provide a numeric answer; units are not to be included.

Inquiry: Give the reported solubility (mole fraction) for this compound. O=C1CCc2ccc(OCCCCN3CCN(c4cccc(Cl)c4Cl)CC3)cc2N1
Reply text: 3.28e-05

Source of measurements: BigSolDB 2.1
